Test: AUC (0 to 8 hrs) in Sprague-Dawley rat at 2 mg/kg, iv
Format: ADME, organism-based
Set-up: time < 8 hr, dose 2 mg/kg, route intravenous
Details: plasma

Smiles input: COc1ccc2c(O[C@@H]3C[C@H]4C(=O)N[C@]5(C(=O)NS(=O)(=O)C6(C)CC6)C[C@H]5/C=C\CCCCCC(=O)N4C3)cc(-c3nc(C(C)C)cs3)nc2c1Cl
Unit abbrev: ng·h/mL
AUC(0-t) at 8 h: 1960

* * *

Experiment: Drug level in Sprague-Dawley rat liver at 2 mg/kg, iv after 8 hrs
Type: ADME, organism-based
Parameters: dose 2 mg/kg, route intravenous
Details: read-out: Drug uptake
Measured property: concentration at 8 h (ng/g)

Smiles input: COc1ccc2c(O[C@@H]3C[C@H]4C(=O)N[C@]5(C(=O)NS(=O)(=O)C6(C)CC6)C[C@H]5/C=C\CCCCCC(=O)N4C3)cc(-c3nc(C(C)C)cs3)nc2c1Cl
Measured property: concentration at 8 h
Measured result: 3660

* * *

Assay: Plasma concentration in Sprague-Dawley rat at 10 mg/kg, po after 2 hrs
Assay type: ADME, organism-based
Set-up: dose 10 mg/kg, route oral

Smiles input: COc1ccc2c(O[C@@H]3C[C@H]4C(=O)N[C@]5(C(=O)NS(=O)(=O)C6(C)CC6)C[C@H]5/C=C\CCCCCC(=O)N4C3)cc(-c3nc(C(C)C)cs3)nc2c1Cl
Unit abbrev: ng/mL
concentration at 2 h: 632

Source listed as ChEMBL document CHEMBL1141682.
